The measured values listed here are drawn from ChEMBL document CHEMBL1154925.

- Tested on: HEK293
- ASSAY_EXPLANATION: cells
- CONDITIONS: Homo sapiens, HEK293, 72 h
QUANTITY_NAME: IC50 (nM)
Numbers only, in nM.

Illustrative cases are given below, each with its answer.
COc1cc([C@H]2c3cc4c(cc3[C@@H](OC(=O)CCC(=O)NCCCCNC(=O)[C@@H](C)c3ccc(-c5ccccc5)c(F)c3)[C@@H]3COC(=O)[C@@H]23)OCO4)cc(OC)c1OC    180
COc1ccc2c(c1)c(CCNC(=O)CCC(=O)O[C@@H]1c3cc4c(cc3[C@H](c3cc(OC)c(OC)c(OC)c3)[C@@H]3C(=O)OC[C@H]31)OCO4)c(C)n2Cc1ccc(Br)cc1    240

Prompt: Using the record for COc1ccc2c(c1)c(CC(=O)N1CCN(C(=O)CCC(=O)O[C@@H]3c4cc5c(cc4[C@H](c4cc(OC)c(OC)c(OC)c4)[C@@H]4C(=O)OC[C@H]43)OCO5)CC1)c(C)n2C(=O)c1ccc(Cl)cc1 , report its IC50.
Completion: 520

----------
- SYSTEM_UNDER_TEST: Prostaglandin G/H synthase 1 (Homo sapiens) (UniProt P23219)
- Sequence (P23219 whole entry): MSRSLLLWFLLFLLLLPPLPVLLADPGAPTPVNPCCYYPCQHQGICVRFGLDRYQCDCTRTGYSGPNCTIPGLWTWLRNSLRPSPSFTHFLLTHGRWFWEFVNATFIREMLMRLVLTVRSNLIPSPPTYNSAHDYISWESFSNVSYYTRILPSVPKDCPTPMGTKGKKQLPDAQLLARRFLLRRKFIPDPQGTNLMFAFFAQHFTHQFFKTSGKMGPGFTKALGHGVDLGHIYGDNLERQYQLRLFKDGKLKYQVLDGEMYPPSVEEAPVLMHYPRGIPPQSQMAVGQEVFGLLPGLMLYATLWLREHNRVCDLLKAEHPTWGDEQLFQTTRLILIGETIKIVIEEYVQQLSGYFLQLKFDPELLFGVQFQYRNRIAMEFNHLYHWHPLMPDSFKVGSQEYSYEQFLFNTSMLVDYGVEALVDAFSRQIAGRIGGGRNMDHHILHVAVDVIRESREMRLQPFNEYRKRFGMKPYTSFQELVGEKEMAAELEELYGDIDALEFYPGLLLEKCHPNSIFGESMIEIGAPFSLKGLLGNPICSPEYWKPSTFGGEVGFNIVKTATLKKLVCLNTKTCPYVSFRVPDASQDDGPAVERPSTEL
- ASSAY_EXPLANATION: Inhibition of human COX1
Calls of active or inactive are those of the source. The calls are words filed in the database; no cut-off is given here.
QUANTITY_NAME: inhibition

COc1ccc2c(c1)c(CC(=O)NCCOC(=O)CCC(=O)O[C@@H]1c3cc4c(cc3[C@H](c3cc(OC)c(OC)c(OC)c3)[C@@H]3C(=O)OC[C@H]31)OCO4)c(C)n2C(=O)c1ccc(Cl)cc1    inactive
COc1ccc2c(c1)c(CC(=O)NCCCCNC(=O)CCC(=O)O[C@@H]1c3cc4c(cc3[C@H](c3cc(OC)c(OC)c(OC)c3)[C@@H]3C(=O)OC[C@H]31)OCO4)c(C)n2C(=O)c1ccc(Cl)cc1    inactive
COc1ccc2c(c1)c(CC(=O)NCCCCCNC(=O)CCC(=O)O[C@@H]1c3cc4c(cc3[C@H](c3cc(OC)c(OC)c(OC)c3)[C@@H]3C(=O)OC[C@H]31)OCO4)c(C)n2C(=O)c1ccc(Cl)cc1    inactive
COc1ccc2c(c1)c(CC(=O)N1CCN(C(=O)CCC(=O)O[C@@H]3c4cc5c(cc4[C@H](c4cc(OC)c(OC)c(OC)c4)[C@@H]4C(=O)OC[C@H]43)OCO5)CC1)c(C)n2C(=O)c1ccc(Cl)cc1    inactive

----------
Give IC50 for every item shown.
- SYSTEM_UNDER_TEST: Prostaglandin G/H synthase 2 (Mus musculus)
- Sequence (Q05769 whole entry): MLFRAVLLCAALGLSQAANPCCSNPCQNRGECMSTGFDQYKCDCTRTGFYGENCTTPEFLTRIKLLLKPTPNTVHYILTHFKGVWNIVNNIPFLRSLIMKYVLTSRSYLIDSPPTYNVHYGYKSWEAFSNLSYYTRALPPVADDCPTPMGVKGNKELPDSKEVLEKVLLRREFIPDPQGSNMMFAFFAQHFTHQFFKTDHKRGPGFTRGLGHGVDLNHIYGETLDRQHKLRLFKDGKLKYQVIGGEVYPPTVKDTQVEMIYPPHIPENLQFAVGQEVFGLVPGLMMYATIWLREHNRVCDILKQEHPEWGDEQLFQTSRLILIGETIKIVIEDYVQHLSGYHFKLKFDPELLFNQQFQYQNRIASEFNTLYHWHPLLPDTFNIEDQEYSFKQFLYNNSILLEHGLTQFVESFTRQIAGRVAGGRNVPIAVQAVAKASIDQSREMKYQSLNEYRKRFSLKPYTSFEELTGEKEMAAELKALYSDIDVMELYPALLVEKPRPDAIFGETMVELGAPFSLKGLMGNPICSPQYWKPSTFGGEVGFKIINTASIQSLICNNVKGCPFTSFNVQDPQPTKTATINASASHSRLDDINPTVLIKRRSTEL

Your task in this section: give IC50 for each listed record.
1. COc1cc([C@H]2c3cc4c(cc3[C@@H](OC(=O)CCC(=O)NC[C@H](C)c3ccccc3)[C@@H]3COC(=O)[C@@H]23)OCO4)cc(OC)c1OC
2. COc1ccc2c(c1)c(CC(=O)NCCCCNC(=O)CCC(=O)O[C@@H]1c3cc4c(cc3[C@H](c3cc(OC)c(OC)c(OC)c3)[C@@H]3C(=O)OC[C@H]31)OCO4)c(C)n2C(=O)c1ccc(Cl)cc1
3. COc1cc([C@H]2c3cc4c(cc3[C@@H](OC(=O)CCC(=O)NCc3ccc(NS(=O)(=O)c5cccc6c(N(C)C)cccc56)cc3)[C@@H]3COC(=O)[C@@H]23)OCO4)cc(OC)c1OC
4. COc1cc([C@H]2c3cc4c(cc3[C@@H](OC(=O)CCC(=O)NCCCCNC(=O)[C@@H](C)c3cccc(C(=O)c5ccccc5)c3)[C@@H]3COC(=O)[C@@H]23)OCO4)cc(OC)c1OC
5. COc1ccc2c(c1)c(CCNC(=O)CCC(=O)O[C@@H]1c3cc4c(cc3[C@H](c3cc(OC)c(OC)c(OC)c3)[C@@H]3C(=O)OC[C@H]31)OCO4)c(C)n2Cc1ccc(Br)cc1

Completion:
1. > 4 µM
2. 0.295 µM
3. > 4 µM
4. > 4 µM
5. > 4 µM

----------
- Tested on: HEK293
- ASSAY_EXPLANATION: cells
- CONDITIONS: Homo sapiens, HEK293, 72 h
QUANTITY_NAME: pIC50
Numbers only, as −log10 of the molar value.

Illustrative cases are given below, each with its answer.
COc1ccc2cc([C@@H](C)C(=O)NCCCCNC(=O)CCC(=O)O[C@@H]3c4cc5c(cc4[C@H](c4cc(OC)c(OC)c(OC)c4)[C@@H]4C(=O)OC[C@H]43)OCO5)ccc2c1    6.48
COc1cc([C@H]2c3cc4c(cc3[C@@H](OC(=O)CCC(=O)NCCCCNC(=O)[C@@H](C)c3ccc(CC(C)C)cc3)[C@@H]3COC(=O)[C@@H]23)OCO4)cc(OC)c1OC    6.80
CO[C@@H](/C(C)=C/C=C/C(C)=C/c1coc(C)n1)[C@@H](C)[C@@H]1C[C@H](O)[C@@]2(C)O[C@@H]2/C=C/[C@@H](C)[C@H]2C[C@H](CC(=O)O2)C[C@@H]2O[C@H]2C(=O)O1    6.46
COc1ccc2c(c1)c(CC(=O)NCCOC(=O)CCC(=O)O[C@@H]1c3cc4c(cc3[C@H](c3cc(OC)c(OC)c(OC)c3)[C@@H]3C(=O)OC[C@H]31)OCO4)c(C)n2C(=O)c1ccc(Cl)cc1    6.07
COc1cc([C@@H]2c3cc4c(cc3[C@H](OC(=O)CCC(=O)O)[C@H]3COC(=O)[C@H]23)OCO4)cc(OC)c1OC    7.12
COc1cc([C@@H]2c3cc4c(cc3[C@H](O)[C@H]3COC(=O)[C@H]23)OCO4)cc(OC)c1OC    7.77

Your task in this section: give pIC50 for each listed record.
1. COc1ccc2c(c1)c(CC(=O)NCCCCNC(=O)CCC(=O)O[C@@H]1c3cc4c(cc3[C@H](c3cc(OC)c(OC)c(OC)c3)[C@@H]3C(=O)OC[C@H]31)OCO4)c(C)n2C(=O)c1ccc(Cl)cc1
2. COc1ccc(CCNC(=O)CCC(=O)O[C@@H]2c3cc4c(cc3[C@H](c3cc(OC)c(OC)c(OC)c3)[C@@H]3C(=O)OC[C@H]32)OCO4)cc1
3. COc1cc([C@H]2c3cc4c(cc3[C@@H](OC(=O)CCC(=O)NC[C@H](C)c3ccccc3)[C@@H]3COC(=O)[C@@H]23)OCO4)cc(OC)c1OC

Completion:
1: 6.80; 2: 7.10; 3: 6.44

----------
- Tested on: Trypanosoma brucei brucei
- ASSAY_EXPLANATION: microbe, parasite or virus in culture
- CONDITIONS: 48 h
QUANTITY_NAME: IC50

Prompt: Using the record for COc1ccc2c(c1)c(CC(=O)O)c(C)n2C(=O)c1ccc(Cl)cc1 , report its IC50.
Completion: > 50 µM
